This collection of values is drawn from patent US5252469A.

Each item that follows carries a reported Activity of Enzyme No. 83 with metal ion (%).
test system: Enzyme No. 83 (transglutaminase of Streptomyces sp No. 83); test: Influence of metal ions on transglutaminase activity; assay type: biochemical; details: metal ion 1 mM in activity measurement system; None = 100; 10 min
quantityMeasured: Activity of Enzyme No. 83 with metal ion (%)

{"columns": ["molecule", "measured"],
 "data": [
  ["[Ba+2].[Cl-].[Cl-] [BaCl2]", 100],
  ["[Cl][Fe]([Cl])[Cl] [FeCl3]", 93],
  ["[Cl-].[Cl-].[Zn+2] [ZnCl2]", 36],
  ["[Cl-].[Na+] [NaCl]", 102],
  ["[Cl-].[Cl-].[Co+2] [CoCl2]", 100],
  ["[Cl][Cu][Cl] [CuCl2]", 89],
  ["[Cl][Pb][Cl] [PbCl2]", 59],
  ["[Cl-].[Cl-].[Sr+2] [SrCl2]", 100],
  ["[Cl-].[K+] [KCl]", 104]
]}

* * *

system: Enzyme No. 466 (transglutaminase of Streptomyces lavendulae No. 466); assay: Substrate specificity: reaction of synthetic substrates with hydroxylamine; assay type: biochemical; conditions: Table 9; CBZ-Gln-Gly = 100
Peptide text beside a SMILES is read from it. * marks the point of attachment. Cbz = O=C(OCc1ccccc1)*
quantityMeasured: Substrate specificity (%), Enzyme No. 466

{"columns": ["molecule", "measured"],
 "data": [
  ["CCOC(=O)CNC(=O)[C@H](CCC(N)=O)NC(=O)OCc1ccccc1 [CBZ--Gln--Gly--OEt] (Cbz-Gln-Gly-OEt)", 65],
  ["NC(=O)CC[C@H](NC(=O)OCc1ccccc1)C(=O)NCC(=O)O [CBZ--Gln--Gly, benzyloxycarbonylglutaminyl glycine] (Cbz-Gln-Gly-OH)", 100],
  ["NC(=O)CC[C@H](NC(=O)OCc1ccccc1)C(=O)O [CBZ--Gln, benzyloxycarbonyl glutamine]", 0],
  ["NC(=O)CC[C@H](NC(=O)OCc1ccccc1)C(=O)N[C@@H](CCC(N)=O)C(=O)NCC(=O)O [CBZ--Gln--Gln--Gly] (Cbz-Gln-Gln-Gly-OH)", 35],
  ["NCC(=O)N[C@@H](CCC(N)=O)C(=O)NCC(=O)O [Gly--Gln--Gly, glycylglutaminyl glycine] (H-Gly-Gln-Gly-OH)", 0],
  ["NC(=O)C[C@H](NC(=O)OCc1ccccc1)C(=O)NCC(=O)O [CBZ--Asn--Gly, benzyloxycarbonylasparaginyl glycine] (Cbz-Asn-Gly-OH)", 0],
  ["NC(=O)CC[C@H](NC(=O)CNC(=O)OCc1ccccc1)C(=O)NCC(=O)NCC(=O)O [CBZ--Gly--Gln--Gly--Gly] (Cbz-GQGG-OH)", 18]
]}

* * *

test system: Enzyme No. 83 (transglutaminase of Streptomyces sp No. 83); assay: Substrate specificity: reaction of synthetic substrates with hydroxylamine; format: biochemical; settings: Table 9; CBZ-Gln-Gly = 100
Peptide text beside a SMILES is read from it. * marks the point of attachment. Cbz = O=C(OCc1ccccc1)*
Values of Substrate specificity (%), Enzyme No. 83 strictly less than 10% map to Met, and values of at least 10% map to Not met.

{"columns": ["molecule", "qualitativeLabel"],
 "data": [
  ["CCOC(=O)CNC(=O)[C@H](CCC(N)=O)NC(=O)OCc1ccccc1 [CBZ--Gln--Gly--OEt] (Cbz-Gln-Gly-OEt)", "Not met"],
  ["NCC(=O)N[C@@H](CCC(N)=O)C(=O)NCC(=O)O [Gly--Gln--Gly, glycylglutaminyl glycine] (H-Gly-Gln-Gly-OH)", "Met"],
  ["NC(=O)CC[C@H](NC(=O)OCc1ccccc1)C(=O)N[C@@H](CCC(N)=O)C(=O)NCC(=O)O [CBZ--Gln--Gln--Gly] (Cbz-Gln-Gln-Gly-OH)", "Not met"],
  ["NC(=O)CC[C@H](NC(=O)OCc1ccccc1)C(=O)O", "Met"],
  ["NC(=O)CC[C@H](NC(=O)OCc1ccccc1)C(=O)NCC(=O)O [CBZ--Gln--Gly, benzyloxycarbonylglutaminyl glycine] (Cbz-Gln-Gly-OH)", "Not met"],
  ["NC(=O)C[C@H](NC(=O)OCc1ccccc1)C(=O)NCC(=O)O [CBZ--Asn--Gly, benzyloxycarbonylasparaginyl glycine] (Cbz-Asn-Gly-OH)", "Met"]
]}

* * *

tested on: Enzyme No. 466 (transglutaminase of Streptomyces lavendulae No. 466); assay: Substrate specificity: reaction of synthetic substrates with hydroxylamine; assay type: biochemical; settings: Table 6; synthetic substrate 5 mM; CBZ-Gln-Gly = 100
Peptide text beside a SMILES is read from it. * marks the point of attachment. Cbz = O=C(OCc1ccccc1)*
quantityMeasured: Substrate specificity, Enzyme No. 466 (reactivity of substrate with hydroxylamine)

{"columns": ["compound", "studyTarget", "measured"],
 "data": [
  ["NC(=O)CC[C@H](NC(=O)OCc1ccccc1)C(=O)NCC(=O)O [CBZ--Gln--Gly, benzyloxycarbonylglutaminyl glycine] (Cbz-Gln-Gly-OH)", "Enzyme No. 466 (transglutaminase of Streptomyces lavendulae No. 466)", 100],
  ["NC(=O)CC[C@H](NC(=O)OCc1ccccc1)C(=O)O [CBZ--Gln, benzyloxycarbonyl glutamine]", "Enzyme No. 466 (transglutaminase of Streptomyces lavendulae No. 466)", 0],
  ["NC(=O)CC[C@H](NC(=O)OCc1ccccc1)C(=O)N[C@@H](CCC(N)=O)C(=O)NCC(=O)O [CBZ--Gln--Gln--Gly] (Cbz-Gln-Gln-Gly-OH)", "Enzyme No. 466 (transglutaminase of Streptomyces lavendulae No. 466)", 35],
  ["NCC(=O)N[C@@H](CCC(N)=O)C(=O)NCC(=O)O [Gly--Gln--Gly, glycylglutaminyl glycine] (H-Gly-Gln-Gly-OH)", "Enzyme No. 466 (transglutaminase of Streptomyces lavendulae No. 466)", 0],
  ["NC(=O)C[C@H](NC(=O)OCc1ccccc1)C(=O)NCC(=O)O [CBZ--Asn--Gly, benzyloxycarbonylasparaginyl glycine] (Cbz-Asn-Gly-OH)", "Enzyme No. 466 (transglutaminase of Streptomyces lavendulae No. 466)", 0],
  ["NC(=O)CC[C@H](NC(=O)CNC(=O)OCc1ccccc1)C(=O)NCC(=O)NCC(=O)O [CBZ--Gly--Gln--Gly--Gly] (Cbz-GQGG-OH)", "Enzyme No. 466 (transglutaminase of Streptomyces lavendulae No. 466)", 18],
  ["CCOC(=O)CNC(=O)[C@H](CCC(N)=O)NC(=O)OCc1ccccc1 [CBZ--Gln--Gly--OEt] (Cbz-Gln-Gly-OEt)", "Enzyme No. 466 (transglutaminase of Streptomyces lavendulae No. 466)", 65]
]}
